Values compiled from patent US20200223889A1.

biological target: human MC4R (Homo sapiens, UniProt P32245); construct: expressed in transfected cells; test: 125NDP-α-MSH competitive binding to membranes of BHK cells expressing human MC4 receptor (filtration assay)
Sequence (P32245 whole entry): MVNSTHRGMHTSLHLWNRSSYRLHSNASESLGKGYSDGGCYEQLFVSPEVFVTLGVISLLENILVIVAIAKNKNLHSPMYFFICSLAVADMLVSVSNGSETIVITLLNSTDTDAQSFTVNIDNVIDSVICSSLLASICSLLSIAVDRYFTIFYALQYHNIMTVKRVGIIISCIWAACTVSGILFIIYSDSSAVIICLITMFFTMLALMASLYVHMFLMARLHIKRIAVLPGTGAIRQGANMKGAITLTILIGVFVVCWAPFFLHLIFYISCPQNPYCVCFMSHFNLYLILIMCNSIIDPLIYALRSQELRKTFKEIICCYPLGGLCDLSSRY
Positions of bridges follow the written chain, without caps; N, C: chain ends. Non-standard residues stand in square brackets, D forms with d. Residues, ends and D or L forms follow the SMILES beside them. Thz = O=C(O)[C@@H]1CSCN1; Ac4c = NC1(C(=O)O)CCC1
Exercise: state measured pKi for each of the compounds provided.
The value called pKi is obtained by taking minus log10 of the concentration in mol/L.

[Q] // lookup pKi for C[C@@H]1NC(=O)[C@@H]2CSSC[C@H](NC(=O)[C@H](Cc3c[nH]c4ccccc34)NC(=O)[C@H](CCCNC(=N)N)NC(=O)[C@@H](Cc3ccccc3)NC(=O)[C@H](Cc3c[nH]cn3)NC1=O)C(=O)N[C@@H](C)C(=O)N[C@@H](Cc1c[nH]cn1)C(=O)N[C@H](Cc1ccccc1)C(=O)N[C@@H](CCCNC(=N)N)C(=O)N[C@@H](Cc1c[nH]c3ccccc13)C(=O)N2 [Chem. 111]
[A] 10.40

[Q] What pKi value was documented for this compound, C[C@@H]1NC(=O)[C@H](C)NC(=O)[C@H](C)NC(=O)[C@@H]2CSSC[C@H](NC(=O)[C@H](Cc3c[nH]c4ccccc34)NC(=O)[C@H](C)NC1=O)C(=O)N[C@@H](C)C(=O)N[C@@H](Cc1c[nH]cn1)C(=O)N[C@H](Cc1ccccc1)C(=O)N[C@@H](CCCNC(=N)N)C(=O)N[C@@H](Cc1c[nH]c3ccccc13)C(=O)N2 [Chem. 87] (cyclo(AAAAWCAH[dF]RWC); disulfide 6-12) ?
[A] 9.77

[Q] # get_value(readout='pKi', item= N=C(N)NCCC[C@@H]1NC(=O)[C@@H](Cc2ccccc2)NC(=O)[C@H](Cc2c[nH]cn2)NC(=O)C2(CCC2)NC(=O)[C@@H]2CSSC[C@H](NC(=O)[C@H](Cc3c[nH]c4ccccc34)NC1=O)C(=O)NC1(CCC1)C(=O)N[C@@H](Cc1c[nH]cn1)C(=O)N[C@H](Cc1ccccc1)C(=O)N[C@@H](CCCNC(=N)N)C(=O)N[C@@H](Cc1c[nH]c3ccccc13)C(=O)N2 [Chem. 20] (cyclo([Ac4c]H[dF]RWC[Ac4c]H[dF]RWC); disulfide 6-12) )
[A] 9.82

[Q] Recorded pKi for C[C@@H]1NC(=O)[C@H](C)NC(=O)[C@@H]2CSSC[C@H](NC(=O)[C@H](Cc3c[nH]c4ccccc34)NC(=O)[C@H](C)NC(=O)[C@@H](C)NC1=O)C(=O)N[C@@H](C)C(=O)N[C@@H](Cc1c[nH]cn1)C(=O)N[C@H](Cc1ccccc1)C(=O)N[C@@H](CCCNC(=N)N)C(=O)N[C@@H](Cc1c[nH]c3ccccc13)C(=O)N2 [Chem. 88] (cyclo(AA[dA]AWCAH[dF]RWC); disulfide 6-12) , please?
[A] 9.70

[Q] Fill blank: measured pKi of the compound C[C@@H]1NC(=O)[C@H](C)NC(=O)[C@@H]2CSSC[C@H](NC(=O)[C@H](CCCNC(=N)N)NC(=O)[C@H](C)NC(=O)[C@@H](C)NC1=O)C(=O)N[C@@H](C)C(=O)N[C@@H](Cc1c[nH]cn1)C(=O)N[C@H](Cc1ccccc1)C(=O)N[C@@H](CCCNC(=N)N)C(=O)N[C@@H](Cc1c[nH]c3ccccc13)C(=O)N2 [Chem. 90] (cyclo(AA[dA]ARCAH[dF]RWC); disulfide 6-12) is ____.
[A] 9.96

[Q] # get_value(readout='pKi', item= C[C@@H]1NC(=O)[C@@H]2CSSC[C@H](NC(=O)[C@H](Cc3c[nH]c4ccccc34)NC(=O)[C@H](CCCNC(=N)N)NC(=O)[C@@H](Cc3ccccc3)NC(=O)[C@H](Cc3c[nH]cn3)NC1=O)C(=O)N[C@@H](CCCNC(=N)N)C(=O)N[C@@H](Cc1ccccc1)C(=O)N[C@@H](Cc1ccccc1)C(=O)N[C@@H](CC(N)=O)C(=O)N[C@@H](C)C(=O)N[C@@H](Cc1ccccc1)C(=O)N2 [Chem. 13] (cyclo(AFCAH[dF]RWCRFFN); disulfide 3-9) )
[A] 9.59

[Q] So what's the measured pKi for this one? C[C@@H]1NC(=O)[C@@H]2CSSC[C@H](NC(=O)[C@H](Cc3c[nH]c4ccccc34)NC(=O)[C@H](CCCNC(=N)N)NC(=O)[C@@H](Cc3ccccc3)NC(=O)[C@H](Cc3c[nH]cn3)NC1=O)C(=O)N[C@@H](C)C(=O)N[C@@H](CCC(=O)O)C(=O)N[C@@H](CCC(=O)O)C(=O)N[C@@H](CCC(=O)O)C(=O)N[C@@H](Cc1c[nH]c3ccccc13)C(=O)N2 [Chem. 44] (cyclo(AEEEWCAH[dF]RWC); disulfide 6-12)
[A] 7.29

[Q] Using the record for C[C@@H]1NC(=O)[C@H](CCCCN)NC(=O)[C@H](CCCCN)NC(=O)[C@H](C)NC(=O)[C@@H]2CSSC[C@H](NC(=O)[C@H](Cc3c[nH]c4ccccc34)NC1=O)C(=O)N1CSC[C@H]1C(=O)N[C@@H](Cc1c[nH]cn1)C(=O)N[C@H](Cc1ccccc1)C(=O)N[C@@H](Cc1c[nH]cn1)C(=O)N[C@@H](Cc1c[nH]c3ccccc13)C(=O)N2 [Chem. 110] (cyclo(AKKAWC[Thz]H[dF]HWC); disulfide 6-12) , report its pKi.
[A] 10.05

[Q] Suppose we examine the compound C[C@@H]1NC(=O)[C@H](C)NC(=O)[C@@H]2CSSC[C@H](NC(=O)[C@H](Cc3c[nH]c4ccccc34)NC(=O)[C@H](C)NC(=O)[C@H](CCCCN)NC1=O)C(=O)N1CSC[C@H]1C(=O)N[C@@H](Cc1c[nH]cn1)C(=O)N[C@H](Cc1ccccc1)C(=O)N[C@@H](Cc1c[nH]cn1)C(=O)N[C@@H](Cc1c[nH]c3ccccc13)C(=O)N2 [Chem. 109] (cyclo(AAKAWC[Thz]H[dF]HWC); disulfide 6-12) ; what pKi value has been reported?
[A] 9.52

[Q] Sample C[C@@H]1NC(=O)[C@@H]2CSSC[C@H](NC(=O)[C@H](Cc3c[nH]c4ccccc34)NC(=O)[C@H](CCCCN)NC(=O)[C@H](CCCCN)NC(=O)[C@H](CCCCN)NC1=O)C(=O)N1CSC[C@H]1C(=O)N[C@@H](Cc1c[nH]cn1)C(=O)N[C@H](Cc1ccccc1)C(=O)N[C@@H](Cc1c[nH]cn1)C(=O)N[C@@H](Cc1c[nH]c3ccccc13)C(=O)N2 [Chem. 81] (cyclo(AKKKWC[Thz]H[dF]HWC); disulfide 6-12) — what was its pKi?
[A] 10.52

----------
Would you kindly list MC1R/MC4R cAMP EC50 ratio for each of these compounds?
target: human MC4R (Homo sapiens); construct: expressed in transfected cells; test: Functional cAMP assay (CisBio HTRF) in BHK cells expressing human MC4R; type: cell-based; conditions: MC1R cAMP EC50 divided by MC4R cAMP EC50
Positions of bridges follow the written chain, without caps; N, C: chain ends. Non-standard residues stand in square brackets, D forms with d. Residues, ends and D or L forms follow the SMILES beside them. Orn = NCCC[C@H](N)C(=O)O; Thz = O=C(O)[C@@H]1CSCN1; Sar = CNCC(=O)O
Give a plain numeric answer without units written out.

[Q] Recorded MC1R/MC4R cAMP EC50 ratio for C[C@@H]1NC(=O)[C@@H]2CSSC[C@H](NC(=O)[C@H](CCCNC(=N)N)NC(=O)[C@H](CCCN)NC(=O)[C@H](CCC(=O)O)NC(=O)[C@H](CCCN)NC1=O)C(=O)N1CSC[C@H]1C(=O)N[C@@H](Cc1c[nH]cn1)C(=O)N[C@H](Cc1ccccc1)C(=O)N[C@@H](Cc1c[nH]cn1)C(=O)N[C@@H](Cc1c[nH]c3ccccc13)C(=O)N2 [Chem. 119] (cyclo(A[Orn]E[Orn]RC[Thz]H[dF]HWC); disulfide 6-12) , please?
[A] 1660

[Q] Which MC1R/MC4R cAMP EC50 ratio value belongs to C[C@@H]1NC(=O)[C@@H]2CSSC[C@H](NC(=O)[C@H](CCCNC(=N)N)NC(=O)[C@H](CCCCN)NC(=O)[C@H](CCCCN)NC(=O)[C@H](CCCCN)NC1=O)C(=O)N(C)CC(=O)N[C@@H](Cc1c[nH]cn1)C(=O)N[C@H](Cc1ccccc1)C(=O)N[C@@H](Cc1c[nH]cn1)C(=O)N[C@@H](Cc1c[nH]c3ccccc13)C(=O)N2 [Chem. 74] (cyclo(AKKKRC[Sar]H[dF]HWC); disulfide 6-12) ?
[A] 19

----------
Provide the recorded EC50 for the entries that follow.
target: human MC4R (Homo sapiens, UniProt P32245); construct: expressed in transfected cells; experiment: Functional cAMP assay (CisBio HTRF) in BHK cells expressing human MC4R; format: cell-based
Positions of bridges follow the written chain, without caps; N, C: chain ends. Non-standard residues stand in square brackets, D forms with d. Residues, ends and D or L forms follow the SMILES beside them. Orn = NCCC[C@H](N)C(=O)O; Thz = O=C(O)[C@@H]1CSCN1
Entry format: amount then unit.

[Q] Which measured EC50 value corresponds to C[C@@H]1NC(=O)[C@H](CCC(=O)O)NC(=O)[C@H](CC(=O)O)NC(=O)[C@H](C)NC(=O)[C@@H]2CSSC[C@H](NC(=O)[C@H](Cc3c[nH]c4ccccc34)NC1=O)C(=O)N1CSC[C@H]1C(=O)N[C@@H](Cc1c[nH]cn1)C(=O)N[C@H](Cc1ccccc1)C(=O)N[C@@H](Cc1c[nH]cn1)C(=O)N[C@@H](Cc1c[nH]c3ccccc13)C(=O)N2 [Chem. 107] (cyclo(ADEAWC[Thz]H[dF]HWC); disulfide 6-12) ?
[A] 10600 pM

[Q] Name the reported EC50 value associated with the compound C[C@@H]1NC(=O)[C@@H]2CSSC[C@H](NC(=O)[C@H](Cc3c[nH]c4ccccc34)NC(=O)[C@H](CCCNC(=N)N)NC(=O)[C@@H](Cc3ccccc3)NC(=O)[C@H](Cc3c[nH]cn3)NC1=O)C(=O)N[C@@H](CCCNC(=N)N)C(=O)N[C@@H](Cc1ccccc1)C(=O)N[C@@H](Cc1ccccc1)C(=O)N[C@@H](CC(N)=O)C(=O)N[C@@H](C)C(=O)N[C@@H](Cc1ccccc1)C(=O)N2 [Chem. 13] (cyclo(AFCAH[dF]RWCRFFN); disulfide 3-9)
[A] 100 pM

[Q] Query: EC50; subject: C[C@@H]1NC(=O)[C@H](C)NC(=O)[C@H](CCCN)NC(=O)[C@H](CCCCN)NC(=O)[C@@H]2CSSC[C@H](NC(=O)[C@H](Cc3c[nH]c4ccccc34)NC1=O)C(=O)N1CSC[C@H]1C(=O)N[C@@H](Cc1c[nH]cn1)C(=O)N[C@H](Cc1ccccc1)C(=O)N[C@@H](Cc1c[nH]cn1)C(=O)N[C@@H](Cc1c[nH]c3ccccc13)C(=O)N2 [Chem. 115] (cyclo(AAWC[Thz]H[dF]HWCK[Orn]); disulfide 4-10)
[A] 100 pM
